These measurements were taken from paper PMC11094138.

target: WDR5^22–334 (human, UniProt P61964 22-334); experiment: ITC
metric: pKd
Reminder that pKd is minus the log10 of a molar concentration.

GSRRAEVHLRK [MLL1^3762–3772_A3764R] : 5.70

Now let's try a different one.
Prompt: Quick check: pKd of GSARAEVHLRK [MLL1 WIN motif MLL1^3762–3772] ?
Response: 5.74
